The reported numbers originate from PubChem BioAssay (EPA / NIEHS).

ASSAYED TARGET: Cellular tumor antigen p53 (Homo sapiens)
ASSAY DETAILS: TOX21_p53_BLA_p3_ratio: Tox21 HCT-116 p53 Agonism Beta-lactamase Assay, Ratio, Phase 3 (AID 2283596)
Experimental: TOX21_p53_BLA_p3 is a cell-based, single-readout assay that uses HCT116, a human intestinal cell line, […] in a 1536-well plate.TOX21_p53_BLA_p3_ratio is an assay readout measuring reporter gene via receptor activity and designed using inducible reporter (beta lactamase induction) detected with GAL4 b-lactamase reporter gene. […] This assay endpoint, TOX21_p53_BLA_p3_ratio, was analyzed in the positive analysis fitting direction relative to DMSO as the negative control and baseline of activity. […]
Inconclusive results are not listed. The source made the active and inactive calls. The calls were made as follows: active = hit-call score of the fitted dose curve at least 0.9, where 1 is the maximum; inconclusive = response in the unintended direction; inactive = score below 0.9.
MEASUREMENT LABEL: outcome

COMPOUND: CC(C)(C)NCC(O)c1ccc(O)c(CO)n1 (configuration not stated)
ASSAYED TARGET: Cellular tumor antigen p53 (Homo sapiens)
MEASUREMENT LABEL: outcome
RESULT: inactive

COMPOUND: Cc1cccc2cccnc12
ASSAYED TARGET: Cellular tumor antigen p53 (Homo sapiens)
MEASUREMENT LABEL: outcome
RESULT: inactive

COMPOUND: CC(C)=C1CC[C@@H](C)CC1=O
ASSAYED TARGET: Cellular tumor antigen p53 (Homo sapiens)
MEASUREMENT LABEL: outcome
RESULT: inactive

COMPOUND: O=C(O)Cc1sc(-c2ccccc2)nc1-c1ccc(Cl)cc1
ASSAYED TARGET: Cellular tumor antigen p53 (Homo sapiens)
MEASUREMENT LABEL: outcome
RESULT: inactive

COMPOUND: C[C@@H]1CCC[C@H](C)N1
ASSAYED TARGET: Cellular tumor antigen p53 (Homo sapiens)
MEASUREMENT LABEL: outcome
RESULT: inactive

COMPOUND: CCc1ccc2c(c1)N(CC(C)CN(C)C)c1ccccc1S2 (configuration not stated)
ASSAYED TARGET: Cellular tumor antigen p53 (Homo sapiens)
MEASUREMENT LABEL: outcome
RESULT: inactive

COMPOUND: CCCN(CCC)CCc1cccc2c1CC(=O)N2
ASSAYED TARGET: Cellular tumor antigen p53 (Homo sapiens)
MEASUREMENT LABEL: outcome
RESULT: inactive

COMPOUND: O=C(O)c1ccc(S(=O)(=O)N(Cl)Cl)cc1
ASSAYED TARGET: Cellular tumor antigen p53 (Homo sapiens)
MEASUREMENT LABEL: outcome
RESULT: inactive

outcome for "O=C(Cn1cnnn1)N[C@@H]1C(=O)N2C(C(=O)O)=C(CSc3nncs3)CS[C@H]12" ?
inactive

Likewise for "C#C[C@]1(O)CC[C@H]2[C@@H]3CCC4=C/C(=N/O)CC[C@@H]4[C@H]3CC[C@@]21CC" ?
inactive

Input CC(C(=O)O)c1cccc(Oc2ccccc2)c1 (configuration not stated)
inactive

Another: "CN[C@H]1CC[C@@H](c2ccc(Cl)c(Cl)c2)c2ccccc21"
inactive
